B1: PRPH (parent)
chain: RTFGPPPSLSPGAFSYSSSSRFSS

- Variants of: B1
- Test Protocol: protein stability index of a GFP-peptide fusion (GPS, HEK-293T) (PSI 1-6); higher = more stable;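 note: lentivirally expressed fusions sorted by FACS into six bins by GFP to DsRed ratio, PSI derived from sequencing read proportions per bin multiplied by bin number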
- Run Parameters: c terminus: a fixed tail appended
Measurement Name: protein stability index
Format: numeric value only, no unit, no commentary.

>  <Variant String>
S10K

>  <Measurement Name>
protein stability index

>  <Reported Result>
3.06

$$$$

INPUT: Which measured protein stability index value corresponds to R1E ?
OUTPUT: 3.09

INPUT: Same question, P6G this time
OUTPUT: 3.02

INPUT: Further, for P7R ?
OUTPUT: 2.93
